test system: CAKI-1; experiment: NCI tumour cell line growth inhibition, 48 h
The source made the active and inactive calls. Rule as the data show it: active = GI50 up to about 1.1 µM and inactive = higher.
Classes used: active, inactive

[[record]]
molecule = "N#Cc1cc2c(cc1C#N)/C(=N\\c1cccc(N)n1)N/C2=N\\c1cccc(N)n1"
target_under_test = "CAKI-1"
group_label = "inactive"

[[record]]
molecule = "Nc1nc(SCCC/C=C/I)nc2c1ncn2C1OC(CO)C(O)C1O (centres undefined)"
target_under_test = "CAKI-1"
group_label = "inactive"

[[record]]
molecule = "CCCCN1C(=O)C[C@H]2[C@@H]3CCc4cc(OCCN5CCCC5)ccc4[C@H]3CC[C@]2(C)C1=O"
target_under_test = "CAKI-1"
group_label = "inactive"

[[record]]
molecule = "CC1(C)CC2(C)CC1CC2(O)c1ccccc1 (centres undefined)"
target_under_test = "CAKI-1"
group_label = "inactive"

[[record]]
molecule = "C/C(=N\\N=C1/C(=O)OC(c2ccccc2)=C1C(=O)c1ccccc1)c1ccc([N+](=O)[O-])cc1"
target_under_test = "CAKI-1"
group_label = "inactive"

[[record]]
molecule = "COc1ccc(CN2C(=O)C(Cc3cc(OC)c(OC)c(C)c3OC)N(C(=O)OC(C)C)C(=O)/C2=C/c2cc(OC)c(OC)c(C)c2OC)cc1 (centres undefined)"
target_under_test = "CAKI-1"
group_label = "inactive"

[[record]]
molecule = "Cc1cc(N)ccc1/N=N\\c1ccc(S(=O)(=O)CCOS(=O)(=O)O)cc1"
target_under_test = "CAKI-1"
group_label = "inactive"

[[record]]
molecule = "CC(C)Oc1c(C2(c3ccccc3O)SCCCS2)c(=O)c1=O"
target_under_test = "CAKI-1"
group_label = "inactive"

[[record]]
molecule = "CN1COc2c(n(C)c(=O)[nH]c2=O)C1"
target_under_test = "CAKI-1"
group_label = "inactive"

[[record]]
molecule = "COc1cc(OCCN(C)C)c2[nH]c(C(=O)N3CC(CCl)c4c3cc(N)c3ccccc43)cc2c1 (centres undefined)"
target_under_test = "CAKI-1"
group_label = "active"

[[record]]
molecule = "O=c1c2ccccc2n2c(-c3ccc(O)cc3)nnc2n1-c1ccccc1"
target_under_test = "CAKI-1"
group_label = "inactive"

[[record]]
molecule = "O=C(CCc1ccc(O)c(O)c1)NCCc1ccccc1"
target_under_test = "CAKI-1"
group_label = "inactive"

[[record]]
molecule = "COc1cc(Nc2nc3ccc(C(F)(F)F)cc3nc2C(=O)O)cc(OC)c1OC"
target_under_test = "CAKI-1"
group_label = "inactive"

[[record]]
molecule = "O=C(c1ccc(O)cc1)C1c2c3c(cc(O)c2C(c2ccc(O)cc2)C1c1cc(O)cc(O)c1)OC(c1ccc(O)cc1)C3c1cc2c(cc1O)OC(c1ccc(O)cc1)C2c1cc(O)cc(O)c1 (centres undefined)"
target_under_test = "CAKI-1"
group_label = "inactive"

[[record]]
molecule = "CNC(=O)OCc1c2ccncc2c(C)c2c1[nH]c1ccccc12"
target_under_test = "CAKI-1"
group_label = "active"

[[record]]
molecule = "Oc1ccc2ccccc2c1/C=N/Cc1c(O)ccc2ccccc12"
target_under_test = "CAKI-1"
group_label = "inactive"

[[record]]
molecule = "COC(=O)C1OC(O[C@H]2CC[C@]3(C)[C@H]4CC=C5[C@@H]6CC(C)(C)CC[C@]6(C(=O)OC6OCC(O)C(O)C6OC6OC(C)C(OC7OCC(O)C(O)C7O)C(OC7OCC(O)(CO)C7O)C6O)[C@H](O)C[C@@]5(C)[C@]4(C)CC[C@H]3C2(C)C)C(O)C(O)C1O (some centres undefined)"
target_under_test = "CAKI-1"
group_label = "inactive"

[[record]]
molecule = "C=CCCC1CCCNC1=S (centres undefined)"
target_under_test = "CAKI-1"
group_label = "inactive"

[[record]]
molecule = "CSCSSC"
target_under_test = "CAKI-1"
group_label = "inactive"

